Known EC50 of a selection of binders
biological target: human FGFR2b extracellular domain (human, UniProt P21802); assay: ELISA
Sequence (P21802 22-377): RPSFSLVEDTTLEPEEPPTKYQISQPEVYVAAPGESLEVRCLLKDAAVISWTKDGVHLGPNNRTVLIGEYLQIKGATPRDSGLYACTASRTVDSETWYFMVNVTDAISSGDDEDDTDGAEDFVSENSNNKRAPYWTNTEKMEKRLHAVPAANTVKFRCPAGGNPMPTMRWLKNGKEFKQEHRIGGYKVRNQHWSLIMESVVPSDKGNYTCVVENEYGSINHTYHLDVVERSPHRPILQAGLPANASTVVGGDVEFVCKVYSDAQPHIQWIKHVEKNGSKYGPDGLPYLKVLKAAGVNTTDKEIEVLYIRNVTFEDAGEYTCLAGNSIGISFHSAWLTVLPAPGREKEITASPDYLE
Give your result in mg/L as a bare value.

Reference set (3 entries):
{"Binder": "1B8 (antibody, V domains shown) VH: QIQLQQSGAELVKPGASVKMSCKASGYTFASYNLHWVKQTPGQGLEWIGLIYPENGDTSYNQKFKGKATLTADTSSTTAYIQLSSLTSEDSAVYFCARGGFDYWGQGTSLTVSS VL: DIKMTQSPASLSASVGETVTITCGASENIYGALNWYQRKQGKSPQLLIYGATNLADGMSSRFSGSGSGRQYSLKISSLHPDDVATYYCQNVLSTPYTFGGGTKLEIK", "Display unit": "mg/L", "EC50": 0.0273}
{"Binder": "3F10 (antibody, V domains shown) VH: EVQLQQSGAELVKPGASVKMSCKASGYTFSFYNIHWVRQTPGQGLEWIGLIYPDNGDTSYNQKFKAKATLTADKSSSTAYMQLSSLTSEDSAVYYCARGGFDYWGQGTTLTVSS VL: DVLMTQSPASLSASVGETVTITCGASENIYGALNWYQRKQGKSPQLLIYGATNLADGMSSRFSGSGSGRQYSLKISSLHPDDVATYYCQNVLSTPYTFGGGTKLEIK", "Display unit": "mg/L", "EC50": 0.00818}
{"Binder": "3A8 (antibody, V domains shown) VH: QVQLQQSGAELVKPGASVKMSCKASGYTFTIYNIHWVRQTPGQGLEWIGLIYPDNGDTSYNQKFKAKATLTADKSSSTAYMQLSSLTSEDSAVYYCARGGFDYWGQGTSLTVSS VL: DIVMTQSQKFMSTSVGDRVSVTCKASQNVGTNVAWYQQKPGQSPKALIYSASYRYSGVPDRFTGSGSGTDFTLTISNVQAEDLADYFCQQHYSTPYTFGGGTKLEMK", "Display unit": "mg/L", "EC50": 0.0278}

Assign EC50 to the following record: 3A12 (antibody, V domains shown) VH: EVQLQQSGAELVKPGASVKMSCKASGYTFSFYNVHWVRQTPGQGLEWIGLIYPDNGDTSYNQKFKAKATLTADKSSSAAYMQLSSLTSEDSAVYYCARGGFDYWGQGTSLTVSS VL: DIVMTQSHKFMSTSVGDRVNITCKASQDVSTAVAWYQQKPGQSPKLLIYSASYRYSGVPDRFTGSGSGTDFTFTISSVQAEDLAVYYCQQHYSTPYTFGGGTKLEMK
0.0128

Assign EC50 to the following record: 3H6 (antibody, V domains shown) VH: QVQLQQSGAELVKPGASVKMSCKASGYTFSFYNIHWVRQTPGQGLEWIGLIYPDNGDTSYNQKFKAKATLTADKSSSTAYMQLSSLTSEDSAVYYCARGGFDYWGQGTTLTVSS VL: DIQMTQSPASLSASVGETVTITCRASENIYSYLAWYQQKQGKSPQLLVYNAKTLAEGVPSRFSGSGSGTQFSLKINSLQPEDFGSYYCQHHYGTPYTFGGGTKLEMK
0.0128
